Parameter growth: see the listing below.
System: SR leukemia
Test: NCI-60 one-dose screen, 48 h (100 = growth as untreated, 0 = no growth, -100 = all killed)
Details: 10 µM unless noted
The panel holds about 83,000 compounds, 20% with a hit somewhere; the sample as a whole holds those more often. Calls of active or inactive are those of the source. Rule for the calls: active = growth percent below 10; inactive = the rest.

| compound | growth |
| --- | --- |
| COc1cc(C=Nc2cccc(C(=O)O)c2)ccc1N(CCCl)CCCl | 91.9% (inactive) |
| CN1C(=O)C(=Cc2cn(CCCCCCn3c4ccccc4c(=O)c4ccccc43)c3ccccc23)C(=O)N(C)C1=O | 77% (inactive) |
| O=C(O)C(O)C(O)C1[O][Sb]([c]2ccc([N+](=O)[O-])cc2)[O]C1CO (stereo unspecified) | 102% (inactive) |
| CCCC(=O)O[C@@H]1C[C@H]2C[C@@H](O[C@@H]3O[C@@H](C)[C@@H](O)[C@@H](O)[C@H]3OC)C[C@@H](C[C@@H](C)/C=C/C=C\C[C@@H]3O[C@@H](C[C@@H]3C)[C@@H](O)C[C@H]3C[C@@]1(O)C(=O)O3)O2 | 85.9% (inactive) |
| CN1CCC(c2c[nH]c3ccccc23)C1 (stereo unspecified) | 96.6% (inactive) |
| CN(C)C1C(=O)C(C(N)=O)=C(O)C2(O)C(=O)C3=C(O)c4c(O)cccc4C(C)(O)C3CC12.[Cl][Sb]([Cl])[Cl] (stereo unspecified) | 19.2% (inactive) |
| N#CCCNc1ccccc1 | 77.1% (inactive) |
| COC(=O)[C@@H](C)C[C@H](Cc1ccccc1)NC(=O)c1csc(CC[C@H](C(C)C)N(C)C(=O)[C@@H](NC(=O)[C@H]2CCCCN2C)C(C)C)n1 | 15.9% (inactive) |
| CC(=O)O[C@H](C[C@H](C(C)C)N(C)C(=O)[C@@H](NC(=O)[C@H]1CCCN1C)C(C)C)c1nc(C(=O)N[C@@H](Cc2ccccc2)C[C@H](C)C(=O)O)c(C)s1 | 8.27% (active) |
| O=C(N/N=C/c1ccc(N(CCCl)CCCl)cc1)c1cccc2ccccc12 | 24.2% (inactive) |
| O=C(Nc1ccc(Cl)cc1)Nc1nccs1 | 27.3% (inactive) |
| COc1cc([N+](=O)[O-])c2nc(C)ccc2c1[N+](=O)[O-] | 82.2% (inactive) |
| COC(=O)C12CC(NC(=O)c3csc([C@@H](C[C@H](C(C)C)N(C)C(=O)[C@@H](NC(=O)[C@H]4CCCCN4C)C(C)C)OC(C)=O)n3)(C1)C2 | 15.2% (inactive) |
| COc1cc(/C=C\c2cc(OC)c(OC)c(OC)c2)cc(N/C=C\C(=O)c2cc(OC)c(OC)c(OC)c2)c1OC | -5.44% (active) |
| CCOC(=S)S[C@H]1C[C@@H]2[C@H](CC[C@]3(C)C(=O)CC[C@@H]23)[C@@]2(C)CCC(=O)C=C12 | 106% (inactive) |
| COc1cc(/C=N/C2=C(C#N)C(c3ccco3)c3c(c4cc(C)ccc4oc3=O)O2)cc(OC)c1OC (stereo unspecified) | 74.8% (inactive) |
| O=C1C2C(C(=O)[N]1[Hg][c]1cccs1)C1(Cl)C(Cl)=C(Cl)C2(Cl)C1(Cl)Cl (stereo unspecified) | 1.72% (active) |
| C/C(=C\c1ccn(-c2ccccc2N)n1)[C@@H]1C[C@@H]2O[C@]2(C)CCC[C@H](C)[C@H](O)[C@@H](C)C(=O)C(C)(C)[C@@H](O)CC(=O)O1 | 17.4% (inactive) |
| COc1cc2c(cc1OCc1ccccc1)C(CC(C)C)=[N+](C)CC2 | 89.9% (inactive) |
| Clc1ccc(N2COOC3(OOC2)C2CC4CC(C2)CC3C4)cc1 | 11.2% (inactive) |
| CCOC(=O)c1c(C)n(Cc2ccccc2)c2cc(CN(C)C)c(O)cc12 | 17.8% (inactive) |
| O=[N+]([O-])c1ccc([Se]C2CCCCC2Cl)c([N+](=O)[O-])c1 (stereo unspecified) | 78.7% (inactive) |
| CC(=O)OC[C@]1(C)C=C2C(=O)[C@](C)(O)C3(CC3)C(C)=C2[C@H]1O | 9.64% (active) |
| CCOP(=O)(NC[C@H]1O[C@](O)(CO)[C@@H](O)[C@@H]1O)OCC | 97.1% (inactive) |
| COc1ccc2c(c1)c(-c1nc(-c3c[nH]c4ncccc34)cs1)cn2CCCCN1CCCCC1 | -57.6% (active) |
| Clc1ccc(CSC(Cn2ccnc2)c2ccc(Cl)cc2Cl)cc1 (stereo unspecified) | 2.95% (active) |
| c1cnc2[nH]cc(-c3csc(-c4cn(CCCCN5CCOCC5)c5ccccc45)n3)c2c1 | -20.1% (active) |
| CC[S][Hg][Cl] | 98.1% (inactive) |
| O=C(O)C(Cl)(Cl)C(F)(F)F | 122% (inactive) |
| Cc1ccc(C(Cc2ccccc2)NCCO)cc1 (stereo unspecified) | 105% (inactive) |
| C[C@]12CCc3sc(-c4cccc(F)c4)nc3C1=CC[C@@H]1[C@@H]2CC[C@]2(C)C(=O)CC[C@@H]12 | 5.11% (active) |
| COC(=O)[C@@]1(C)CC[C@]2(C)CC[C@]3(C)C4=CC(=O)c5c(cc(O)c(O)c5C)[C@]4(C)CC[C@@]3(C)[C@@H]2C1 | 51.2% (inactive) |
| CCCCNC(c1ccc(Cl)cc1)C(O)c1ccc(Cl)cc1 (stereo unspecified) | -34.2% (active) |
| N#C[Se]Cc1cc(-c2ccccc2)n(-c2ccc(S(N)(=O)=O)cc2)n1 | -32.5% (active) |
| CCCOC(=O)N[C@H]1CCc2c(Br)c(OC)c(OC)c(OC)c2-c2ccc(SC)c(=O)cc21 | 3.3% (active) |
| CCOC(=O)N1CC1 | -20.9% (active) |

Cited source for all entries: PubChem BioAssay (NCI)
